tested on: Klebsiella pneumoniae; assay: Antibacterial activity against polymyxin-susceptible Klebsiella pneumoniae ATCC 700721 clinical isolates assessed as reduction in bacterial growth by broth microdilution method; assay type: functional
value_kind: MIC (µg/mL)
Report only the number, with the unit µg/mL understood.

| chemical_structure | MIC / µg/mL |
| --- | --- |
| CC[C@H](C)CCCCC(=O)N[C@@H](CCN)C(=O)N[C@H](C(=O)N[C@@H](CCN)C(=O)N[C@H]1CCNC(=O)CNC(=O)[C@H](CCN)NC(=O)[C@H](CCN)NC(=O)[C@H](CC(C)C)NC(=O)[C@@H](Cc2ccccc2)NC(=O)[C@H](CCN)NC1=O)[C@@H](C)O | 8 |
| CC[C@H](C)CCCCC(=O)N[C@@H](CCN)C(=O)N[C@H](C(=O)N[C@@H](CCN)C(=O)N[C@H]1CCNC(=O)[C@H](CC)NC(=O)[C@H](CCN)NC(=O)[C@H](CCN)NC(=O)[C@H](CC(C)C)NC(=O)[C@@H](Cc2ccccc2)NC(=O)[C@H](CCN)NC1=O)[C@@H](C)O | 4 |
| C/C=C1/NC(=O)[C@H](CCN)NC(=O)[C@H](CCN)NC(=O)[C@H](CC(C)C)NC(=O)[C@@H](Cc2ccccc2)NC(=O)[C@H](CCN)NC(=O)[C@@H](NC(=O)[C@H](CCN)NC(=O)[C@@H](NC(=O)[C@H](CCN)NC(=O)CCCC[C@@H](C)CC)[C@@H](C)O)CCNC1=O | 16 |

Consider now this further compound.
Data request, read-out MIC, for CC[C@H](C)CCCCC(=O)N[C@@H](CCN)C(=O)N[C@H](C(=O)N[C@@H](CCN)C(=O)N[C@H]1CCNC(=O)[C@H]([C@H](C)O)NC(=O)[C@H](CCN)NC(=O)[C@H](CCN)NC(=O)[C@H](CC(C)C)NC(=O)[C@@H](Cc2ccccc2)NC(=O)[C@H](CCN)NC1=O)[C@@H](C)O
1
